So I've got a bunch of compounds here, and I need their log10 TGI values.
Test system: XF 498 CNS
Assay: NCI tumour cell line growth inhibition, 48 h
Friendly reminder: values = log10 of TGI, unit µM.

Ask | Given the entry "COC(=O)CCC(=O)N1C/C(=C\c2ccccc2)C(=O)/C(=C/c2ccccc2)C1" , report its measured log10 TGI.
Reply | 1.28

Ask | Consider the compound "CN(C)CCC(/C=C/c1ccccc1)=N\Nc1ccc(Cl)c(Cl)c1" and give its measured log10 TGI.
Reply | 0.86

Ask | Please give the measured log10 TGI for this compound: "O=c1c2ccccc2[nH]c2c(O)ccc(O)c12"
Reply | 1.49

Ask | I would be grateful if you could share the reported log10 TGI for CCc1c2cc(OC)c(OC)cc2cc2c3cc(OC)c(OC)cc3cc[n+]12 (tested in a mixture with another compound) .
Reply | 1.53

Ask | What does the data say about its log10 TGI? Entry: CCC/C=C\C=C\C1(NS(=O)(=O)c2ccc(C)cc2)CCC(C(C)(C)C)CC1 (stereo not given)
Reply | 1.55

Ask | If you can, please state the reported log10 TGI value of CC[C@@]1(OC(=O)C(N)CCCCN)C(=O)OCc2c1cc1n(c2=O)Cc2cc3ccccc3nc2-1 (stereo not given in full) .
Reply | 0.25

----------
Answer each item with its documented TGI.
System: A549 NSCLC
Experiment: NCI tumour cell line growth inhibition, 48 h

Ask | Given CN1CC(c2ccccc2)C(O)(C2(c3ccccc3)CN(C)CC(c3ccccc3)C2=O)C(c2ccccc2)C1 (centres undefined) , state its recorded TGI.
Reply | > 100 µM

Ask | What value of TGI has been recorded for this entry: "O=S(=O)(O)c1cc(S(=O)(=O)O)c2cc(N=Nc3c(O)ccc4ccccc34)ccc2c1"
Reply | > 100 µM

Ask | Could you tell me which TGI is on file for "S=c1o[nH]c(-c2ccccc2)c1C=Nc1ccccc1" ?
Reply | > 100 µM

Ask | Need TGI of "COCCOCCOCc1n(Cc2ccc3ccccc3c2)c2ccccc2[n+]1Cc1ccc2ccccc2c1" , thanks.
Reply | 3.84 µM

Ask | Item "O=C(O)CCO/N=C1/C(c2c(O)[nH]c3ccccc23)=Nc2ccccc21" has what recorded TGI?
Reply | > 100 µM

Ask | What measured TGI goes with CCC1C(C)C=NN1c1nc(N)nc(C(C#N)=Nc2ccc(N(C)C)cc2)n1 (centres undefined) ?
Reply | > 50 µM

Ask | Need TGI, item "O=C(Nn1c(-c2cccs2)nc2ccc(I)cc2c1=O)c1ccccc1"
Reply | 45.1 µM

Ask | Return reported TGI; argument: O=C(CC(O)(C(F)(F)F)C(F)(F)Cl)CC(O)(C(F)(F)F)C(F)(F)Cl (centres undefined)
Reply | > 10 µM

Ask | Would you mind telling me what TGI value was observed for "O=C1C[C@H](COCc2ccccc2)NC(=O)C[C@H](COCc2ccccc2)NC(=O)C[C@H](COCc2ccccc2)N1" ?
Reply | > 100 µM

Ask | Consider the compound "Clc1cc2ccccc2c2ccccc12" and give its measured TGI.
Reply | > 100 µM

Ask | Look at this compound and give its reported TGI. "CN(C)CCCNc1ccc2nnn3c4ccc(OC(=O)c5ccccc5)cc4c(=O)c1c23"
Reply | 23.7 µM

Ask | Recorded TGI of "CC1=C(/C=C/C(=O)CC(=O)/C=C/C2=C(C)CCCC2(C)C)C(C)(C)CCC1" , please.
Reply | > 100 µM

Ask | Query: TGI; subject: "C/C(=N\NC(=O)C[N+](C)(C)C)c1sc(-c2cccnc2)nc1C"
Reply | > 100 µM

Ask | Could you share which TGI value was measured for "CCC1C(C#N)=C(O)NC(O)=C1C#N" ?
Reply | > 100 µM

----------
Tested on: HCC-2998 colon
Assay: NCI tumour cell line growth inhibition, 48 h
I'd appreciate it if you could supply TGI values for the items below.

Ask | Return reported TGI; argument: "c1ccc2c(c1)nc1n2CSCC1"
Reply | > 100 µM

Ask | Can you share its TGI? I mean this molecule: CC1=CC(C)(c2c[nH]c3ccccc23)CC(C)(C)c2c1[nH]c1ccccc21 (stereo unspecified)
Reply | 30.4 µM

Ask | # TGI lookup, item "CCCCCCCCCCCCCCCCCCNCc1ccc(Cl)cc1"
Reply | 18.9 µM

Ask | // TGI lookup, key: "O=C1CCCC/C1=C1/SC(=Nc2ccccc2)C(=Nc2ccccc2)N1c1ccccc1"
Reply | > 100 µM

Ask | What does the data say about its TGI? Entry: "COc1cc(-n2cc(-c3ccccc3)[nH]c2=O)cc(OC)c1OC"
Reply | > 100 µM

Ask | Data request, read-out TGI, for "O=C1CNC(=O)/C(=C/c2c[nH]c3ccccc23)N1"
Reply | > 100 µM

Ask | For O=C1CC(c2c(-c3ccccc3)[nH]c3ccccc23)C(=O)N1c1ccccc1 (stereo unspecified) , what is its reported TGI?
Reply | > 100 µM

Ask | # query: TGI of entry "CC[C@@]1(OC(=O)CN(C)C)C(=O)OCc2c1cc1n(c2=O)Cc2cc3c(N)cccc3nc2-1"
Reply | 0.875 µM

Ask | Please give the measured TGI for this molecule: "CC1=NN(c2nc(N)nc(CSc3cc(Cl)c(C)cc3S(N)(=O)=O)n2)C(C)(C)C1"
Reply | > 10 µM

Ask | Any idea what its TGI is? The molecule is "CCOC(=O)Nc1nc2ccccc2[nH]1"
Reply | > 100 µM

Ask | Reported TGI, molecule CCOC(=O)C1C=C2O[C@@H]3OC4(CCCCC4)O[C@@H]3C2C2C(=O)CCC(=O)[C@@]12C(=O)OC (stereo partly specified) : ____
Reply | > 100 µM

Ask | Requested field: TGI. Item: CCO/S(=N/S(=O)(=O)c1ccccc1)c1ccccc1[N+](=O)[O-] (stereo unspecified)
Reply | > 100 µM

Ask | Which TGI reading was recorded for the molecule "Cn1nc2ccc([N+](=O)[O-])cc2[n+]1[O-]" ?
Reply | > 100 µM

Ask | For the molecule "CN(C)CCNCc1ccc2c(-c3ccccc3)nc3cc(Cl)c(Cl)cc3n12" , what TGI is on record?
Reply | 5.83 µM

Ask | Requested read-out: TGI. Entry: "O=C(/C=C/c1ccc(OCc2ccccc2)cc1)NCc1ccc(C(=O)NCCc2c[nH]c3ccccc23)cc1"
Reply | > 100 µM

Ask | What measured TGI goes with "C[C@]12Cc3cnc(-c4ccccc4)nc3C[C@@H]1CC[C@@H]1[C@@H]2CC[C@@]2(C)[C@H]1CC[C@]2(C)O" ?
Reply | 37.9 µM

Ask | Fill in: TGI of O=C1c2c(O)cc(O)cc2C(C2OC(CO)C(O)C(O)C2O)c2cc(CO)cc(O)c21 (stereo unspecified) is ___
Reply | > 100 µM

Ask | # query: TGI of entry "COC1=N[C@H](C(C)C)C(OC)=N[C@H]1Cc1ccc(C[C@@H]2N=C(OC)[C@@H](C(C)C)N=C2OC)s1"
Reply | > 100 µM

Ask | Consider the molecule shown here: "CCCN(CCC)C(=S)N/N=C(/C)c1ccccc1O" What is its recorded TGI?
Reply | > 100 µM

Ask | For the molecule "COc1ccc2c(c1)c1c(n2CCN2CCOCC2)-c2cccc(OC)c2CC1" , what TGI is on record?
Reply | 63.4 µM

Ask | What measured TGI goes with "c1ccc2c(c1)nn1c3ccc4nonc4c3[n-][n+]21" ?
Reply | > 100 µM

----------
System: UACC-62 melanoma
Assay: NCI tumour cell line growth inhibition, 48 h
measured-property: TGI (µM)
Hi! Could you send only the number? It should be in µM, unit omitted.

Ask | I'd like to know its TGI. The molecule in question is "COC(=O)CCC(=O)N1C/C(=C\c2ccccc2)C(=O)/C(=C/c2ccccc2)C1"
Reply | 3.61

Ask | Record request: TGI value, item "[N-]=[N+]=NCCCn1c2c(c3ccc([N+](=O)[O-])cc3c1=O)C(=O)c1cc3c(cc1-2)OCO3"
Reply | 0.782

Ask | TGI for "CC(=O)Oc1ccc2c(c1)[C@@]1(C)CCCC(C)(C)[C@@H]1CC2" ?
Reply | 32.8

----------
Test system: BT-549 breast
Experiment: NCI tumour cell line growth inhibition, 48 h; in the data active = GI50 below about 0.43 µM; inactive = the rest
Answer with one of the outcomes given here: active, inactive

Ask | How was "Cc1cc(-c2nnc(/C=C/c3ccc4c(c3)OCO4)o2)n[nH]1" classified in this test?
Reply | inactive

Ask | Record request — test call for "COc1ccc(/C(C)=N/NC(=O)CSc2nc3ccccc3c(=O)n2CCc2ccc(S(N)(=O)=O)cc2)cc1"
Reply | inactive

Ask | For this compound, state the assay outcome: "COCCOCCOCc1n(Cc2ccc3ccccc3c2)c2ccccc2[n+]1Cc1ccc2ccccc2c1"
Reply | active

Ask | Hi, sorry to bother you, what did the test record for "CCN(CC)c1c(-c2ccccc2)n[nH]c1C(=O)OC" ?
Reply | inactive

Ask | Record lookup: outcome of this test for "Cc1ccc(S(=O)(=O)OCC#CCOS(=O)(=O)c2ccc(C)cc2)cc1" ?
Reply | inactive

Ask | // return assay outcome for "Cc1ccc(C(=O)c2sc3nc4c(cc3c2N)CCCC4)c(C)c1"
Reply | inactive

Ask | Per the records of this test, what outcome belongs to "CNC(=O)c1cc(Oc2cccc3nc(NC(=O)Nc4cc(C(F)(F)F)cc(C(F)(F)F)c4)ccc23)ccn1" ?
Reply | inactive

Ask | Tell me the recorded outcome of this test for "O=C1Nc2cc(-c3cccc(O)c3)ccc2/C1=C/c1ccc[nH]1" .
Reply | inactive
